Molecular target: recombinant human NF-kappaB-inducing kinase (NIK/MAP3K14) (Homo sapiens)
Test: Biological Assay B: inhibition of auto-phosphorylation of recombinant human NIK/MAP3K14 (AlphaScreen), performed at 2 locations
Format: biochemical
Conditions: location 2; AlphaScreen auto-phosphorylation; averaged values; read-out: Assay B location 2 IC50
Note to self: IC50 under 30 nM means condition met, ties and anything higher get condition not met.

Given the entry COc1cc(C(=O)NC2CCCOCC2)ccc1Nc1nccc(-c2cnc3c(c2)C(C)(CO)CN3)n1 (stereo not shown) , would its reported IC50 be below 30 nM?
condition met

Say whether its IC50 is strictly beneath 30 nM. Entry: CC1(CO)CNc2ncc(-c3ccnc(Nc4ccc(C(=O)NC5CCOCC5)cc4OC(F)F)n3)cc21 (stereo not shown)
condition met

Check if IC50 falls below 30 nM for COc1ccc(C#N)cc1Nc1nccc(-c2cnc3c(c2)C(C)(CO)CN3)n1 (single isomer, unassigned) [Compound 249] .
condition met

# strict comparison: is reported IC50 < 30 nM? input = COc1cc(N2CCOCC2)c(Cl)cc1Nc1nccc(-c2cnc3c(c2)C(C)(CO)CN3)n1 (single isomer, unassigned) [Compound 6R]
condition met

Check if IC50 falls below 30 nM for COc1cc(N2CCOCC2)c(C#N)cc1Nc1nccc(-c2cnc3c(c2)C(C)(CO)CN3)n1 (stereo not shown) [Compound 4] .
condition met

Say whether its IC50 is strictly beneath 30 nM. Entry: Cc1c(C#N)cccc1Nc1nccc(-c2cnc3c(c2)C(C)(CO)CN3)n1 (stereo not shown)
condition not met

Threshold test, IC50 < 30 nM: COc1cccc(F)c1Nc1nccc(-c2cnc3c(c2)C(C)(CO)CN3)n1 (stereo not shown)
condition not met

###

Molecular target: recombinant human NF-kappaB-inducing kinase (NIK/MAP3K14) (Homo sapiens, UniProt Q99558)
Sequence (Q99558 whole entry): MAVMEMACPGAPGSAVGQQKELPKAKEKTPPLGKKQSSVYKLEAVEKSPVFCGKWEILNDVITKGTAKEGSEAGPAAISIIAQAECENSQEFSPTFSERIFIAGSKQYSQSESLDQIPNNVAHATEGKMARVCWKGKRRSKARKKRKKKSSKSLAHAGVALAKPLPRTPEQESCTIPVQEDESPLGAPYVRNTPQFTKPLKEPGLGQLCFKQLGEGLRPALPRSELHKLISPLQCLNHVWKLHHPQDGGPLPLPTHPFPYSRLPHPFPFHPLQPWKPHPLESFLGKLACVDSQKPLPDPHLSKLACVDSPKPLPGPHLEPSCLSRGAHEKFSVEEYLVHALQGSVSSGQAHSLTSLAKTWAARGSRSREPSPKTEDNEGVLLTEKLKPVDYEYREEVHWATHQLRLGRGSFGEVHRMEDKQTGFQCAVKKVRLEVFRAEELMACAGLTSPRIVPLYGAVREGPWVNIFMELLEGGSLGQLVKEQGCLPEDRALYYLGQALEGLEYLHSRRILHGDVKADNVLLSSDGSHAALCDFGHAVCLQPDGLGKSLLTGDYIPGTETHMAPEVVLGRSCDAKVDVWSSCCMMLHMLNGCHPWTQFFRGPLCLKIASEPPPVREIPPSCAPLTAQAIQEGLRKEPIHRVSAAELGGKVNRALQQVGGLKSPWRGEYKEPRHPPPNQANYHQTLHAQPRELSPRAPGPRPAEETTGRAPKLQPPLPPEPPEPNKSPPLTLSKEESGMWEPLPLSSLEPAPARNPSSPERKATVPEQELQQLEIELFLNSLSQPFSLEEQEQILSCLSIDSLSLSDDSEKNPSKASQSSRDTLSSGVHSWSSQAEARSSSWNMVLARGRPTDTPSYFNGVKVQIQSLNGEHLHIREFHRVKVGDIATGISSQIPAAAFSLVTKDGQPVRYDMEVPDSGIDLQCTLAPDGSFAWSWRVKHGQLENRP
Assay: Biological Assay B: inhibition of auto-phosphorylation of recombinant human NIK/MAP3K14 (AlphaScreen), performed at 2 locations
Format: biochemical
Details: location 2; AlphaScreen auto-phosphorylation; averaged values; read-out: Assay B location 2 IC50
For each entry below, report its IC50 value.
Write the answer as a number in nM, unit excluded.

Consider the compound CC1(CO)CNc2ncc(-c3ccnc(Nc4ccccc4Br)n3)cc21 (centres unmarked) and give its recorded IC50.
12.6

Please look at this compound and report its IC50: CCOC1CN(c2cc(OC)c(Nc3nccc(-c4cnc5c(c4)C(C)(CO)CN5)n3)cc2Cl)C1 (centres unmarked)
10

Give me measured IC50, please, for this compound: Cc1cc(N2CCOCC2)c(F)cc1Nc1nccc(-c2cnc3c(c2)C(C)(CO)CN3)n1 (single isomer, unassigned) [Compound 256]
155

Specify reported IC50 for the compound shown: COc1cc(-n2cncn2)ccc1Nc1nccc(-c2cnc3c(c2)C(C)(CO)CN3)n1 (centres unmarked)
16.6

Look up and state reported IC50 for CCc1ccccc1Nc1nccc(-c2cnc3c(c2)C(C)(CO)CN3)n1 (centres unmarked)
19.1

Provide IC50 value for the following compound: COc1cc(CN(C)C)ccc1Nc1nccc(-c2cnc3c(c2)C(C)(CO)CN3)n1 (centres unmarked)
40.7

Entry COc1cc(N2CCN(C)CC2)c(Cl)cc1Nc1nccc(-c2cnc3c(c2)C(C)(CO)CN3)n1 (centres unmarked) [Compound 267] needs its IC50 filled in; supply it.
0.5

Supply IC50 value. Item: Cc1cc(C(=O)N2CCN(C)CC2)ccc1Nc1nccc(-c2cnc3c(c2)C(C)(C)CN3)n1
2.6
